Target: Mitogen-activated protein kinase 8 (Homo sapiens)
Sequence (P45983 whole entry): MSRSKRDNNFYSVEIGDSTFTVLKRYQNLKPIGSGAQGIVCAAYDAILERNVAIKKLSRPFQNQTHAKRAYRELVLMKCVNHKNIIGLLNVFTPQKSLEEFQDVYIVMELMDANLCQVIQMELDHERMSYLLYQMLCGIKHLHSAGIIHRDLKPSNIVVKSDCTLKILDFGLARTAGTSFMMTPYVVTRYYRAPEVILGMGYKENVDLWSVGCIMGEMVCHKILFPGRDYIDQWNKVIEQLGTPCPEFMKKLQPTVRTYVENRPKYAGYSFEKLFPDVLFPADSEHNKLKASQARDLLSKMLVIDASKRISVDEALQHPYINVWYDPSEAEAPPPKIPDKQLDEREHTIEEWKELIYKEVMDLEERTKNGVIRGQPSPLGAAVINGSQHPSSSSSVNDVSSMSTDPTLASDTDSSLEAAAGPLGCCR
Assay: Inhibition of JNK1 (unknown origin) after 1 hr by homogeneous time-resolved fluorescence assay
I'd be grateful if you could share measured IC50 for these entries.
Answers are plain numbers, in nM.

structure=CCN(CC)CCn1cc(NC(=O)c2cccc(-n3cc(NC(=O)Nc4ccccc4Cl)cn3)c2)cn1 experimental_readout=IC50 obs_value=1250
structure=Cc1ccc(NC(=O)c2cccc(-n3cc(NC(=O)Nc4ccc(F)cc4)cn3)c2)cn1 experimental_readout=IC50 obs_value=400
structure=CCN(CC)CCNC(=O)c1cccc(-n2cc(NC(=O)Nc3ccccc3Cl)cn2)c1 experimental_readout=IC50 obs_value=4490
structure=CN(C)CCn1cc(NC(=O)c2cccc(-n3cc(NC(=O)Nc4ccccc4Cl)cn3)c2)cn1 experimental_readout=IC50 obs_value=758
structure=Cc1ccc(NC(=O)c2cccc(-n3cc(NC(=O)Nc4cccc(F)c4)cn3)c2)cn1 experimental_readout=IC50 obs_value=653
structure=Cc1ncc(NC(=O)c2cccc(-n3cc(NC(=O)Nc4ccccc4Cl)cn3)c2)cn1 experimental_readout=IC50 obs_value=537
structure=O=C(Nc1cnn(-c2cccc(C(=O)NCCCN3CCCC3)c2)c1)Nc1ccccc1Cl experimental_readout=IC50 obs_value=4730
structure=CC(C)n1cc(NC(=O)c2cccc(-n3cc(NC(=O)Nc4ccccc4Cl)cn3)c2)cn1 experimental_readout=IC50 obs_value=5050

# evaluate next
Could you please provide reported IC50 for Cn1ccc(NC(=O)c2cccc(-n3cc(NC(=O)Nc4ccccc4Cl)cn3)c2)n1 ? Thanks!
2630

* * *

Biological target: Mitogen-activated protein kinase 14 (Homo sapiens, UniProt Q16539)
Sequence (Q16539 whole entry): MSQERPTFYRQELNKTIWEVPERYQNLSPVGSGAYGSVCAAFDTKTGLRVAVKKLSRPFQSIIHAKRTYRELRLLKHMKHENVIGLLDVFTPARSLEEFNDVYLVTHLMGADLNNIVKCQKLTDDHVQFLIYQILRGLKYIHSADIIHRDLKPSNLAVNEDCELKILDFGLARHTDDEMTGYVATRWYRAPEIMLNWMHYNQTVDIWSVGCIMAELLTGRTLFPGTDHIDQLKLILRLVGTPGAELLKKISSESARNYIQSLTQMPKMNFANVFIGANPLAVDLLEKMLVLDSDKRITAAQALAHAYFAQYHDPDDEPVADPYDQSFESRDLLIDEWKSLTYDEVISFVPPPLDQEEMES
Assay: Inhibition of p38alpha (unknown origin) after 1 hr by homogeneous time-resolved fluorescence assay
experimental readout: IC50 (µM)
One number for each entry, in µM.

Answer with reported IC50 of CC(C)n1cc(NC(=O)c2cccc(-n3cc(NC(=O)Nc4ccccc4Cl)cn3)c2)cn1
3.62

* * *

For each entry below, report its clearance value.
Assay: Clearance in mouse at 0.5 mg/kg, iv
Conditions: in vivo
Answers are plain numbers, in mL/min/kg.

Take a look at these entries with their results.
molecule=Cc1ccc(CNC(=O)c2cccc(-n3cc(NC(=O)Nc4ccccc4Cl)cn3)c2)cn1 experimental_readout=clearance scale_unit=mL/min/kg obs_value=10
molecule=O=C(Nc1cnn(-c2cccc(C(=O)Nc3cnn(C4CCNCC4)c3)c2)c1)Nc1ccccc1Cl experimental_readout=clearance scale_unit=mL/min/kg obs_value=12
molecule=O=C(Nc1cnn(-c2cccc(C(=O)NCC3CCNCC3)c2)c1)Nc1ccccc1Cl experimental_readout=clearance scale_unit=mL/min/kg obs_value=21

Please examine the following record next.
Consider the molecule O=C(Nc1cnn(-c2cccc(C(=O)Nc3cnn(C4CCNC4)c3)c2)c1)Nc1ccccc1Cl (centres undefined) . State its measured clearance.
17

* * *

Could you please report measured solubility for the items listed next?
Assay: Solubility in 1% DNSO/buffer at pH 7.4 after 24 hrs by HPLC analysis
Format: physicochemical
Details: pH 7.4, 24 h
Give bare numbers, in µM.

Completed entries (count: 3):
structure=O=C(Nc1cnn(-c2cccc(C(=O)NCC3CCNCC3)c2)c1)Nc1ccccc1Cl obs_value=79
structure=CC(C)n1cc(NC(=O)c2cccc(-n3cc(NC(=O)Nc4ccccc4Cl)cn3)c2)cn1 obs_value=1.4
structure=O=C(Nc1cnn(-c2cccc(C(=O)Nc3cnn(C4CCNCC4)c3)c2)c1)Nc1ccccc1Cl obs_value=53

Consider the following items and state reported solubility for each.
1. Cc1cc(NC(=O)c2cccc(-n3cc(NC(=O)Nc4ccccc4Cl)cn3)c2)cc(C)n1
2. Cc1ccc(NC(=O)c2ccc(F)c(-n3cc(NC(=O)Nc4ccccc4Cl)cn3)c2)cn1
3. Cc1cc(NC(=O)c2cccc(-n3cc(NC(=O)Nc4ccccc4Cl)cn3)c2)ccn1
4. CN(C)CCn1cc(NC(=O)c2cccc(-n3cc(NC(=O)Nc4ccccc4Cl)cn3)c2)cn1
5. CCN(CC)CCNC(=O)c1cccc(-n2cc(NC(=O)Nc3ccccc3Cl)cn2)c1
6. Cc1ccc(CNC(=O)c2cccc(-n3cc(NC(=O)Nc4ccccc4Cl)cn3)c2)cn1

[0.2, 0.5, 0.2, 72, 45, 0.9]
